- Assay Name: Unbound drug level in rabbit at 1 to 10 mg/kg, iv
- Type: ADME, organism-based, Oryctolagus cuniculus
- Condition Set: in vivo
Assay Endpoint: fraction unbound

Return reported fraction unbound. Input compound: `[2H]C([2H])([2H])NC(=O)c1cnc(Nc2ccc(F)cn2)cc1Nc1ccccc1S(C)(=O)=O`
0.13

* * *

Let's look at some compounds and their measured half-life.
- Assay Name: Half life in cynomolgus monkey liver microsomes
- Assay type: ADME, Macaca fascicularis, Microsome
Your answer should be a plain number; it is taken to be in min.

1. [2H]C([2H])([2H])NC(=O)c1nnc(Nc2ccccn2)cc1Nc1ccccc1S(C)(=O)=O
4
2. [2H]C([2H])([2H])NC(=O)c1nnc(NC(=O)C2CC2)cc1Nc1ccccc1S(C)(=O)=O
67
3. CNC(=O)c1cnc(Nc2ccccn2)cc1Nc1ccccc1S(C)(=O)=O
3
4. [2H]C([2H])([2H])NC(=O)c1cnc(Nc2ccc(F)cn2)cc1Nc1ccccc1S(C)(=O)=O
6
5. CNC(=O)c1cnc(NC(=O)C2CC2)cc1Nc1ccccc1S(C)(=O)=O
108

Next up:
Assign half-life to the following record: `[2H]C([2H])([2H])NC(=O)c1nnc(Nc2ccc(F)cn2)cc1Nc1ccccc1S(C)(=O)=O`
10
